# study.target: T1, extracellular domain of recombinant glycosylated FcγRIa/CD64 (R&D Systems) labeled with FITC (human, UniProt P12314 16-292, FITC-labeled; glycosylated)
# T1 construct: extracellular domain; it is not restated for the bought reagent; also called FcγRIa-FITC; FcγRI-FITC
# T1 sequence (P12314 16-292): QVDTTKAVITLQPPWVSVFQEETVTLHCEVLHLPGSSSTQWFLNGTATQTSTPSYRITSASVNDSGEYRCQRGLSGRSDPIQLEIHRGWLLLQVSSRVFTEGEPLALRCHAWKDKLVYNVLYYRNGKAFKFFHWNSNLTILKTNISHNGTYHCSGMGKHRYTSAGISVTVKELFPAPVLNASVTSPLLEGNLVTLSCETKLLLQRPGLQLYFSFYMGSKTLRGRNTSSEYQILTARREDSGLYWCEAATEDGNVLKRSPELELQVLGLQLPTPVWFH
# method.summary: flow cytometry of E. coli spheroplasts expressing the Fc fragment, labeled with FcγRIa-FITC
observed.property: binding result

* Fc704 (other, Aglycosylated Fc fragment (E. coli, pPelBFLAG), assayed on spheroplasts; not shown: C-terminal FLAG tag from pPelBFLAG) DKTHTCPPCPAPELLGGPSVFLFPPKPKDTLMISRTPEVTCVVVDVSHEDPEVKFNWYVDGVEVHNAKTKPREEQYNSTYRVVSVLTVLHQDWLNGKEYKCKVSNKAWPEVYEKTISKAKGQPREPQVYTLPPSRDELTKNQVSLTCLVKGFYPSDIAVEWVSNGQPENNYKTTPPVLDSDGSFFLYSKLTVDKSRWQQGNVFSCTVIHEALHNHYTQKSLSLSPGK | binds
* Fc701 (other, Aglycosylated Fc fragment (E. coli, pPelBFLAG), assayed on spheroplasts; also called IgG1-Fc701; not shown: C-terminal FLAG tag from pPelBFLAG) DKTHTCPPCPAPELLGGPSVFLFPPKPKDTLMISRTPEVTCVVVDVSHEDPEVKFNWYVDGVEVHNAKTKPREERYNSTYRVVSVLTVLHQDWLNGKEYKCKVSNKAWPVAYEKTISKAKGQPREPQVYTLPPSRDELTKNQVSLTCLVKGFYPSDIAVEWVSNGQPENNYKTTPPVLDSDGSFFLYSKLTVDKSRWQQGNVFSCSVIHEALHNHYTQKSLSLSPGK | binds
* Fc611 (other, Aglycosylated Fc fragment (E. coli, pPelBFLAG), assayed on spheroplasts; not shown: C-terminal FLAG tag from pPelBFLAG) DKTHTCPPCPAPELLGGPSVFLFPPKPKDTLMISRTPEVTCVVVDVSHEDPEVKFNWYVDGVEVHNAKTKPREEQYNSTYRVVSVLTVLHQDWLNGKEYKCKVSNKALPAPIEKTISKAKVQPREPQVYTLPPSRDELTKNQVSLTCLVKGFYPSDIAVEWVSNGQPENNYKTTPPVLDSDGSFFLYSKLTVDKSRWQQGNVFSCSVIHEALHNHYTQKSLSLSPGK | binds
